# ASSAY SYSTEM: VLA-4 (α4β1 integrin) binding to immobilized VCAM-1 (Homo sapiens, UniProt P05556+P13612)
# Construct: followed by 10 μl of Ramos cell-derived VLA-4; endogenous in cells; host or cells: Ramos cells (VLA-4 preparation derived from the cells)
# EXPERIMENT DESCRIPTION: VLA-4/VCAM-1 Screening Assay (solid-phase, dual antibody ELISA)
# RECORDED CONDITIONS: Ramos cell-derived VLA-4, recombinant human VCAM-1 coated plates, 2 hr at 37° C.; read-out: IC50
QUANTITY MEASURED: IC50 (nM)

compound=COC(=O)N(C)CCC1(C(=O)N[C@@H](Cc2ccc(NC(=O)c3c(Cl)cccc3Cl)cc2)C(=O)O)CCCC1 quantity_measured=IC50 experimental_value=1
compound=N#CCC1(C(=O)N[C@@H](Cc2ccc(NC(=O)c3c(Cl)cccc3Cl)cc2)C(=O)O)CCCC1 quantity_measured=IC50 experimental_value=1
compound="COc1ccc(C2(C(=O)N[C@@H](Cc3ccc(N4C(=O)CSC4c4ccc(O)cc4)cc3)C(=O)O)CCCCC2)cc1 (stereo partly shown)" quantity_measured=IC50 experimental_value=3.9

(A) COc1ccc(CC2(C(=O)NC(Cc3ccc(NC(=O)c4c(Cl)cccc4Cl)cc3)C(=O)O)CCCC2)cc1OC (stereo not shown)
(B) O=C(Nc1ccc(C[C@H](NC(=O)C2(c3ccc(Cl)cc3)CCCC2)C(=O)O)cc1)c1ccnc2ccccc12
(C) N#CC1(C(=O)N[C@@H](Cc2ccc(NC(=O)CCN3CCCCC3)cc2)C(=O)O)CCCC1
(D) COc1ccc(C2(C(=O)NC(Cc3ccc(NC(=O)CCN4CCCCC4)cc3)C(=O)O)CCCC2)cc1 (stereo not shown)
Q) // ranking: key=IC50, reverse=True Give the labels in the order requested.
A) B, C, D, A
(B: 6.4 nM, C: 3 nM, D: 1.9 nM, A: 0.82 nM)

---

# ASSAY SYSTEM: cell-surface VLA-4 (α4β1 integrin) on Ramos cells binding to immobilized VCAM-1 (Homo sapiens, UniProt P05556+P13612)
# Construct: Ramos cells bearing cell-surface VLA-4; endogenous in cells; host or cells: Ramos cells (VLA-4); VCAM-1 purified from CHO cell culture media
# Sequence (P13612 34-1032): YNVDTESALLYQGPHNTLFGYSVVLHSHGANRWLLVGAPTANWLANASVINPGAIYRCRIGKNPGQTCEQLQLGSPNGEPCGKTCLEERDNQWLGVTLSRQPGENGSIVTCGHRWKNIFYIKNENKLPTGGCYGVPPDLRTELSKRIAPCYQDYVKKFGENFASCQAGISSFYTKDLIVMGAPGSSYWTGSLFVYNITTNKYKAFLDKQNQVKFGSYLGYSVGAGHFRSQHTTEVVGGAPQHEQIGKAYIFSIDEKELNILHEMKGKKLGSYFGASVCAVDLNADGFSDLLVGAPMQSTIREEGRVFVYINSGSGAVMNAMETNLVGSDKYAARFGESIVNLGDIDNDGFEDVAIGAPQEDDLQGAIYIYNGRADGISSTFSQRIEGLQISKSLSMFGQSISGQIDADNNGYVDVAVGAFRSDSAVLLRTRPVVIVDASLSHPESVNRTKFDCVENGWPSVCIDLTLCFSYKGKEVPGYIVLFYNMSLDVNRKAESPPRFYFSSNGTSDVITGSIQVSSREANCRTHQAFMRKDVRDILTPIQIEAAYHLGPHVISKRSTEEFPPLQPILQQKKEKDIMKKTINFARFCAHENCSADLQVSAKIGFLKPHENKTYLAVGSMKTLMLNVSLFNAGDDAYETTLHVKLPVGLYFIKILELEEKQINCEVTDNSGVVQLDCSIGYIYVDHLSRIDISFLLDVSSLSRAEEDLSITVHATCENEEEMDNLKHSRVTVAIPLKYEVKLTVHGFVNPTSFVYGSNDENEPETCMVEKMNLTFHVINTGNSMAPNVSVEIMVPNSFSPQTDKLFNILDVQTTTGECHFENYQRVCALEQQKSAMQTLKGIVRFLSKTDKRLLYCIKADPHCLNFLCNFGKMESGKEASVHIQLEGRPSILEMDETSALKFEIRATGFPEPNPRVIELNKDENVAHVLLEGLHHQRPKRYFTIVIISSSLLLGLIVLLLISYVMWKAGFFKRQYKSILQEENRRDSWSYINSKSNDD
# Sequence (P05556 21-798): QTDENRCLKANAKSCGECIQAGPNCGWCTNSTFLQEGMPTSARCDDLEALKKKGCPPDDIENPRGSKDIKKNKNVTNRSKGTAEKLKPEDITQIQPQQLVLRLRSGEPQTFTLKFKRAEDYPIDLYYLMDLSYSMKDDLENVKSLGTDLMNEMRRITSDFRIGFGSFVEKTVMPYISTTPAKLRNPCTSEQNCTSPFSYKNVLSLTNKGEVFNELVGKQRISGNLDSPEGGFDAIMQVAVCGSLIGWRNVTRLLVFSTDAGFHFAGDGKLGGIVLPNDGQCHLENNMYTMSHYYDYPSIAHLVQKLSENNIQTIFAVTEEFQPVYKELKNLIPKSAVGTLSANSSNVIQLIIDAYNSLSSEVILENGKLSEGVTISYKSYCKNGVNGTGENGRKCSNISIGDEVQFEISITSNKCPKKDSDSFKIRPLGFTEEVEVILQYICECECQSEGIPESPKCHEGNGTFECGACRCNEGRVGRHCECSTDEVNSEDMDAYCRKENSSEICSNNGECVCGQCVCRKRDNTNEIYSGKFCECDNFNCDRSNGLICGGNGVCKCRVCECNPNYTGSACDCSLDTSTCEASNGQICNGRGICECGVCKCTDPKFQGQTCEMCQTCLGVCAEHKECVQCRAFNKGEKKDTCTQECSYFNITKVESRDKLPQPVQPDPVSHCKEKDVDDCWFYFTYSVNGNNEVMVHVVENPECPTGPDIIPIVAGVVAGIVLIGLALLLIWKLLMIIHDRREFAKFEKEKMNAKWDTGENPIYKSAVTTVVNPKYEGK
# EXPERIMENT DESCRIPTION: Ramos (VLA-4)/VCAM-1 Cell-Based Screening Assay (cell adhesion)
# RECORDED CONDITIONS: Calcein-AM labeled Ramos cells, VCAM-1 coated plates, 45 min at room temperature; read-out: IC50 in Ramos Cell Based Assay
pIC50: −log10 of the molar value.
QUANTITY MEASURED: pIC50

(a) Cn1nnnc1-c1cccc(CC2(C(=O)N[C@@H](Cc3ccc(NC(=O)c4c(Cl)cccc4Cl)cc3)C(=O)O)CCC2)c1 [Example 56]
(b) O=C(NCCC1(C(=O)N[C@@H](Cc2ccc(NC(=O)c3c(Cl)cccc3Cl)cc2)C(=O)O)CCCC1)NCc1ccccc1 [Example 191]
(c) CCCC(=O)N1C(c2ccccc2)N(c2ccc(C[C@H](NC(=O)C3(CCNC(C)=O)CCCC3)C(=O)O)cc2)C(=O)[C@H]1C (single isomer, unassigned) [Example 344]
Q) Arrange the above in rising order of pIC50. Give the labels in the order requested.
A) b, a, c

---

# ASSAY SYSTEM: VLA-4 (α4β1 integrin) binding to immobilized VCAM-1 (Homo sapiens, UniProt P05556+P13612)
# Construct: followed by 10 μl of Ramos cell-derived VLA-4; endogenous in cells; host or cells: Ramos cells (VLA-4 preparation derived from the cells)
# EXPERIMENT DESCRIPTION: VLA-4/VCAM-1 Screening Assay (solid-phase, dual antibody ELISA)
# RECORDED CONDITIONS: Ramos cell-derived VLA-4, recombinant human VCAM-1 coated plates, 2 hr at 37° C.; read-out: IC50
# Procedure: VLA-4 antagonist activity, defined as ability to compete for binding to immobilized VCAM-1 was quantitated using a solid-phase, dual antibody ELISA. VLA-4 (α4β1 integrin) bound to VCAM-1 was detected by a complex of anti-integrin β1 antibody: HRP-conjugated anti-mouse IgG: chromogenic substrate (K-Blue). […] Results were calculated as % inhibition of total binding (i.e., VLA-4+VCAM-1 in the absence of test compound).
pIC50: −log10 of the molar value.
QUANTITY MEASURED: pIC50

(I) COc1ccc(C2(C(=O)NC(Cc3ccc(NC(=O)c4c(Cl)cccc4Cl)cc3)C(=O)O)CCCCC2)cc1 (stereo not shown)
(II) Cc1ccc([N+](=O)[O-])cc1C(=O)Nc1ccc(C[C@H](NC(=O)C23CC4CC(CC(C4)C2)C3)C(=O)O)cc1
Q) Which of the two gives a bigger number for pIC50: I or II ? Field: selected label. Fill in the label of the entry you choose.
A) II

---

# ASSAY SYSTEM: cell-surface VLA-4 (α4β1 integrin) on Ramos cells binding to immobilized VCAM-1 (Homo sapiens, UniProt P05556+P13612)
# Construct: Ramos cells bearing cell-surface VLA-4; endogenous in cells; host or cells: Ramos cells (VLA-4); VCAM-1 purified from CHO cell culture media
# EXPERIMENT DESCRIPTION: Ramos (VLA-4)/VCAM-1 Cell-Based Screening Assay (cell adhesion)
# RECORDED CONDITIONS: Calcein-AM labeled Ramos cells, VCAM-1 coated plates, 45 min at room temperature; read-out: IC50 in Ramos Cell Based Assay
QUANTITY MEASURED: IC50 (nM)

(1) Cc1cc([N+](=O)[O-])ccc1C(=O)Nc1ccc(C[C@H](NC(=O)C2(C)CC2(Cl)Cl)C(=O)O)cc1 (stereo partly drawn) [Example 100]
(2) O=C(Nc1ccc(C[C@H](NC(=O)C2(CCNC(=O)C3CCCN3C(=O)C(F)(F)F)CCCC2)C(=O)O)cc1)c1c(Cl)cccc1Cl (stereo partly drawn) [Example 159]
Q) Would you kindly point out which of 1 and 2 has the smaller IC50 figure? Field: selected label. Fill in the label of the entry you choose.
A) 1
(1: 54.5 nM, 2: 313 nM)

(P) CCCC(=O)N1C(c2ccccc2)N(c2ccc(C[C@H](NC(=O)C3(CCNC(C)=O)CCCC3)C(=O)O)cc2)C(=O)[C@H]1Cc1ccc(OC)cc1 (single isomer, unassigned) [Example 280]
(Q) COC(=O)CCC(=O)NCCC1(C(=O)N[C@@H](Cc2ccc(NC(=O)c3c(Cl)cccc3Cl)cc2)C(=O)O)CCCC1 [Example 163]
(R) COCC(=O)NCCC1(C(=O)N[C@@H](Cc2ccc(NC(=O)c3c(Cl)cccc3Cl)cc2)C(=O)O)CCCC1 [Example 162]
(S) CCCC(=O)N1C(c2ccc(Cl)cc2)N(c2ccc(C[C@H](NC(=O)C3(CCNC(C)=O)CCCC3)C(=O)O)cc2)C(=O)[C@H]1C (single isomer, unassigned) [Example 351]
Q) // ranking: key=IC50, reverse=True Give the labels in the order requested.
A) Q, R, S, P
(Q: 85 nM, R: 23 nM, S: 13 nM, P: 4.2 nM)

---

# ASSAY SYSTEM: VLA-4 (α4β1 integrin) binding to immobilized VCAM-1 (Homo sapiens, UniProt P05556+P13612)
# Construct: followed by 10 μl of Ramos cell-derived VLA-4; endogenous in cells; host or cells: Ramos cells (VLA-4 preparation derived from the cells)
# EXPERIMENT DESCRIPTION: VLA-4/VCAM-1 Screening Assay (solid-phase, dual antibody ELISA)
# RECORDED CONDITIONS: IC50 nM, Ramos cell-derived VLA-4, recombinant human VCAM-1 coated plates, 2 hr at 37° C.
In this section we review reported IC50 values for a set of compounds.
Field: numeric (nM). Do not append units.

smiles_string=COc1cccc(CC2(C(=O)N[C@@H](Cc3ccc(NC(=O)c4c(Cl)cccc4Cl)cc3)C(=O)O)CCCC2)c1 measure_unit=nM experimental_value=1.1
smiles_string=O=C(Nc1ccc(C[C@H](NC(=O)C2(CCN3CCOCC3)CCCC2)C(=O)O)cc1)c1c(Cl)cccc1Cl measure_unit=nM experimental_value=2.4
smiles_string=O=C(Nc1ccc(C[C@H](NC(=O)C2(CCCCO)CCCC2)C(=O)O)cc1)c1c(Cl)cccc1Cl measure_unit=nM experimental_value=0.5
smiles_string=Cn1nnnc1-c1ccc(CC2(C(=O)N[C@@H](Cc3ccc(NC(=O)c4c(Cl)cccc4Cl)cc3)C(=O)O)CCCC2)cc1 measure_unit=nM experimental_value=0.47
smiles_string=COCCCCC1(C(=O)N[C@@H](Cc2ccc(NC(=O)c3c(Cl)cccc3Cl)cc2)C(=O)O)CCCC1 measure_unit=nM experimental_value=0.32
smiles_string=O=C(NCCC1(C(=O)N[C@@H](Cc2ccc(NC(=O)c3c(Cl)cccc3Cl)cc2)C(=O)O)CCCC1)c1cccc(C(F)(F)F)c1 measure_unit=nM experimental_value=14
smiles_string=CCCCC1(C(=O)N[C@@H](Cc2ccc(NC(=O)c3c(Cl)cccc3Cl)cc2)C(=O)O)CCCC1 measure_unit=nM experimental_value=1.1
smiles_string=CSCCC1(C(=O)N[C@@H](Cc2ccc(NC(=O)c3c(Cl)cccc3Cl)cc2)C(=O)O)CCCC1 measure_unit=nM experimental_value=0.29
smiles_string=CC(=O)NCCCCC1(C(=O)N[C@@H](Cc2ccc(NC(=O)c3c(Cl)cccc3Cl)cc2)C(=O)O)CCCC1 measure_unit=nM experimental_value=3.6
smiles_string=C=CCCC1(C(=O)N[C@@H](Cc2ccc(NC(=O)c3c(Cl)cccc3Cl)cc2)C(=O)O)CCCC1 measure_unit=nM experimental_value=0.55

Q) # input compound: C/N=C(\S)NCCC1(C(=O)N[C@@H](Cc2ccc(NC(=O)c3c(Cl)cccc3Cl)cc2)C(=O)O)CCCC1 ; wanted: its IC50
A) 0.14

Q) Param item: COc1ccc(C(=O)NCCC2(C(=O)N[C@@H](Cc3ccc(NC(=O)c4c(Cl)cccc4Cl)cc3)C(=O)O)CCCC2)cc1
A) 40

Values were extracted from patent US6455550B1.
